Biological target: T1, ECF01_3473
T1 chain: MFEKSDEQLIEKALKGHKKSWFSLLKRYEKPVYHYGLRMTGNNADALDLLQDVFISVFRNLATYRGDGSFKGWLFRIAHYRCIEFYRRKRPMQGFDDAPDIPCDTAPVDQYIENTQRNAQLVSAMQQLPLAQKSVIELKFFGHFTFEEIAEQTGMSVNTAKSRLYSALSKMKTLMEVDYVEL
parameter.measured: fold repression

1. AS03_1198 (protein) MDKDFDFDNIGKRTPYRTPDNFFEETQRKILERTVDEQRKKRRLKRIIPTVIAVAAVLAGILFTPSLRYMNTDTPSASNILAVDKNNVTTDPVDKWIKELSDEELEELVSFSENDIFLN = 2.38
2. AS11_987 (protein) MNKHPDNNLLEAYASGSIDAVSGLVVATHLETCSKCRAYVNQVEASQANTVSESPSEYSPEFDDMLNDIINAEPVNDNVVIQDTAFVNVAGKSFELPKTLVRFSDLVGSWRSYGGKVFSAQIDLGEDARVSLMYIGENVQIPQHTHRGLESTLVLHGGFSDEDGQYEEGDLMVRDASVKHSPFTQEGEDCLCLTVLTEPMIFTQGVARIFNLFGKGLYP = 4.16
3. AS31_34 (protein) MNKEKLSDHLKSEWKKIDQTANPSIPNQKELLHQLSQMKAEYRKKLLQEIILFVFCALMVVSAAILAFTQAPAVFIVLQVCVLAVLPILIAAEKKRHLGECEVKRG = 1.76
4. AS37_2513 (protein) MSSAPATKEEVDFALKVRRALDERAASLPDATTDRLAAARRAALARKKPDAAIVLVPALAGSAGTLELRPPGEPRKSLARRLARAWPLALLLAGLIGIAYWEDMQRTAELADIDAAMLSDNLPLTAYLDHGFNAYLSHTH = 6.84

From: paper PMC3817407
